System: PC-3M
assay text: MTT assay, antiproliferative activity
Assay type: cell-based
experimental setup: Homo sapiens, 48 h drug exposure, mean ± SD
pIC50: −log10 of the molar value.
measured attribute: pIC50

COc1ccc(-c2oc3c(CC=C(C)C)c(OC(=O)CCCCCCCCCCBr)cc(O)c3c(=O)c2O)cc1 : 4.12

A. COc1ccc(-c2oc3c(CC=C(C)C)c(OC(=O)CCCCCCBr)cc(O)c3c(=O)c2O)cc1
B. COc1ccc(-c2oc3c(CC=C(C)C)c(OC(=O)CCCCCCCCCC[P+](c4ccccc4)(c4ccccc4)c4ccccc4)cc(O)c3c(=O)c2O)cc1
Thinking about recorded pIC50 values, which is higher, A or B ? I would appreciate it if you answered with the label of your choice.
B
(B: 4.95, A: 4.12)

====

Tested on: PC-3M
assay text: MTT assay, antiproliferative activity
Type: cell-based
experimental setup: Homo sapiens, 48 h drug exposure, mean ± SD
measured attribute: IC50

These recorded examples may help you get a feel for the data.
CCCCCCCCC(=O)Oc1cc(O)c2c(=O)c(O)c(-c3ccc(OC)cc3)oc2c1CC=C(C)C : > 100 µM
COc1ccc(-c2oc3c(CC=C(C)C)c(OC(=O)CCCCCCCCBr)cc(O)c3c(=O)c2O)cc1 : > 100 µM

GET /value?item= CCCCCCC(=O)Oc1cc(O)c2c(=O)c(O)c(-c3ccc(OC)cc3)oc2c1CC=C(C)C &field=IC50 returns > 100 µM
